target: intracellular GCN2 (phosphorylation of the GCN2 substrate eIF2α) (Homo sapiens (Human), UniProt Q9P2K8); assay: GCN2 Cellular Inhibition Assay (AlphaScreen SureFire P-eIF2α Ser51, borrelidin-treated U2OS cells); format: cell-based; conditions: 10 μM borrelidin, 1 h, phosphorylated eIF2α Ser51, read-out: GCN2 Biomarker (IC50)
Sequence (Q9P2K8 whole entry): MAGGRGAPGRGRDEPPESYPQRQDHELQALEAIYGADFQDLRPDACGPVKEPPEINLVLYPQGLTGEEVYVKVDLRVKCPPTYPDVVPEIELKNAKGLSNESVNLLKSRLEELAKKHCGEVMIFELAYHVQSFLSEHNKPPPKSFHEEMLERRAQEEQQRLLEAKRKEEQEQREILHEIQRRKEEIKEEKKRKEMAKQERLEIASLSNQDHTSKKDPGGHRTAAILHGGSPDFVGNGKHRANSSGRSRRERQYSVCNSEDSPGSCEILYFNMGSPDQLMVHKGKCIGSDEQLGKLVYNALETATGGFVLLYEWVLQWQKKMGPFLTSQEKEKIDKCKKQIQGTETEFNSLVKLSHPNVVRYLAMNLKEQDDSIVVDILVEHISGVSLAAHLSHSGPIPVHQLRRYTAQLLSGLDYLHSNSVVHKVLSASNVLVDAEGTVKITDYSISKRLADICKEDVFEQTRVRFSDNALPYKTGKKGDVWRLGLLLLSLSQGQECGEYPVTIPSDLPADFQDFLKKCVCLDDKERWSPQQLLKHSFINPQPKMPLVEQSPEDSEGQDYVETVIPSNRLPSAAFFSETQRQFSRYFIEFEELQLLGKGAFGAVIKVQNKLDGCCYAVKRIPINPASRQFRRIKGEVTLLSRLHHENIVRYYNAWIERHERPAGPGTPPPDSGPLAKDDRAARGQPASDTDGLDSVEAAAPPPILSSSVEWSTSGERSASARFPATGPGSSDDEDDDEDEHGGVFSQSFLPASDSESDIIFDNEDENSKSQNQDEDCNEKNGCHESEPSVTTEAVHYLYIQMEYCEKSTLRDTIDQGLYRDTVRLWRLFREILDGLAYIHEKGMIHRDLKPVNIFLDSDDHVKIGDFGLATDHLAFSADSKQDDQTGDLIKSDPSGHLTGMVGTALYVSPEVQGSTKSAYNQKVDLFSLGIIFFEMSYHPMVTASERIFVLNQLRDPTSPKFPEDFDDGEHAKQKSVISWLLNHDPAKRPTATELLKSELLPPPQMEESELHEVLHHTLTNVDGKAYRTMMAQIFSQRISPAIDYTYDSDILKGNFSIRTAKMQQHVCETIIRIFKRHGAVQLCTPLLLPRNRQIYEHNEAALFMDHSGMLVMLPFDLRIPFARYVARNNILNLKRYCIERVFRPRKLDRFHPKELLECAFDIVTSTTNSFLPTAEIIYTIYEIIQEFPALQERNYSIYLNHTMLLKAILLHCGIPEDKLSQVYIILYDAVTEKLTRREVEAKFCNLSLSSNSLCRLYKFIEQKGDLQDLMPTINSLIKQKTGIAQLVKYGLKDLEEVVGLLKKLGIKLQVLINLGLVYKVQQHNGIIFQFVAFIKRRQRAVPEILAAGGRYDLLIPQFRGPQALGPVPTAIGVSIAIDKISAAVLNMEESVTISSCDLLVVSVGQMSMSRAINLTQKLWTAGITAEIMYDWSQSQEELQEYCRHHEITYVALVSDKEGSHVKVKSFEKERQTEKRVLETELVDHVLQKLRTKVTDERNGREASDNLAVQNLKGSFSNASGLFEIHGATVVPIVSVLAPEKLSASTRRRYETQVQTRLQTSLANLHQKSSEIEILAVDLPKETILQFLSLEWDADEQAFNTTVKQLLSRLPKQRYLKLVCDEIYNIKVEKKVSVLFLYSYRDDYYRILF
pIC50: −log10 of the molar value.
Measured pIC50 values are reported for all entries that follow.

The cases that follow already have their pIC50 on record.
Can you look up the measured pIC50 of C[C@@H]1C[C@H](N=S(C)(C)=O)CN(c2ccnc(-c3cnc4ccc(Br)cn34)n2)C1 for me? 5.30 to 6.30

Can you look up the measured pIC50 of CS(=O)(=O)NC[C@@H]1CN(c2ccnc(-c3cnc4ccc(C(F)(F)F)cn34)n2)CCO1 for me? 5.30 to 6.30

New cases:
Can you look up the measured pIC50 of Cc1cc(-c2cnc3ccc(Cl)cn23)nc(N2C[C@H](C)O[C@@H](c3c[nH]nc3C)C2)n1 for me? 5.30 to 6.30

Can you look up the measured pIC50 of Cc1[nH]ncc1[C@H]1CN(c2nccc(-c3cnc4ccc(C(F)(F)F)cn34)n2)C[C@@H](C)O1 (relative stereo) for me? > 6.30

Can you look up the measured pIC50 of CS(=O)(=O)NCC1CCN(c2ccnc(-c3cnc4cc(F)c(Br)cn34)n2)C1 (stereo not shown) for me? 5.30 to 6.30

Data provenance: patent US10793563B2
